# protocol.summary: chemical genetic growth profiling, strain panel (AID 1159580);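 note: tested at 20 µM; growth read once vehicle control cultures reached saturation at 30 °C; 1 = growth at the plate median or of vehicle wells; lower values mean less growth of the strain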
# conditions: S. cerevisiae deletion strains, growth OD, locus YLR384C, strain iki3
Screen size: about 5,500 compounds; about 2,000 (36%) were called active. Another 18% or so got no clear call; they are omitted. Cut-off read from the data, not from the text of the source: active = normalized growth mostly below about 0.91 (no sharp cut-off); inconclusive = no clear call, values can overlap the other calls; inactive = mostly above about 0.92. The list shows a part of the results. Where a SMILES comes first, the peptide text is derived from it.
Reply using exactly one outcome from y (active), n (inactive)

Ask: Hi, do you know how O=C(O[C@@H]1Cc2c(O)cc(O)cc2O[C@@H]1c1cc(O)c(=O)c2c(O)c(O)cc([C@H]3Oc4cc(O)cc(O)c4C[C@H]3O)c2c1)c1cc(O)c(O)c(O)c1 came out in this test?
Result: y

Ask: Hi, do you know how O=C(O[C@@H]1Cc2c(O)cc(O)cc2O[C@@H]1c1cc(O)c(=O)c2c(O)c(O)cc([C@H]3Oc4cc(O)cc(O)c4C[C@H]3OC(=O)c3cc(O)c(O)c(O)c3)c2c1)c1cc(O)c(O)c(O)c1 came out in this test?
Result: y

Ask: Hi, do you know how COC(=O)[C@]1(C)CCC[C@]2(C)c3ccc(C(C)C)cc3C(=O)CC12 (some centres undefined) came out in this test?
Result: n

Ask: Hi, do you know how CC(C1OC(C)(C)C(O)C1O)[C@@H]1CC[C@]2(C)C3=CCC4C(C)(C)C(=O)CC[C@]4(C)C3CC[C@@]12C (some centres undefined) came out in this test?
Result: n

Ask: Hi, do you know how CCN(Cc1ccncc1)C(=O)C(CO)c1ccccc1 (centres undefined) came out in this test?
Result: n

Ask: Hi, do you know how CCC(c1ccc(O)cc1)C(CC)c1ccc(O)cc1 (centres undefined) came out in this test?
Result: n

Ask: Hi, do you know how CCc1cc(C(N)=S)ccn1 came out in this test?
Result: n

Ask: Hi, do you know how CO[C@@]1(NC(=O)C(C(=O)O)c2ccc(O)cc2)C(=O)N2C(C(=O)O)=C(CSc3nnnn3C)CO[C@@H]21 (some centres undefined) came out in this test?
Result: n

Ask: Hi, do you know how CC1CC[C@]2(NC1)O[C@H]1CC3C4CC[C@H]5C[C@@H](O)CC[C@]5(C)C4CC[C@]3(C)[C@H]1[C@@H]2C (some centres undefined) came out in this test?
Result: y

Ask: Hi, do you know how CC(=O)Oc1ccc2c(c1C(C)C)CCC1C(C)(C)CCC[C@]21C (some centres undefined) came out in this test?
Result: n

Ask: Hi, do you know how NC(=O)CN1CCCC1=O came out in this test?
Result: n

Ask: Hi, do you know how CCCCCC(=O)Cc1cc(O)cc(O)c1C(=O)Oc1cc(CC(=O)CCCCC)c(C(=O)O)c(OC)c1 came out in this test?
Result: n

Ask: Hi, do you know how CC1(C)C(=O)C=C[C@@]2(C)C1CC(=O)[C@]1(C)C2CC[C@@]2(C)[C@H](c3ccoc3)OC(=O)[C@H]3O[C@]321 (some centres undefined) came out in this test?
Result: n

Ask: Hi, do you know how CC1(C)O[C@H]2CC(=O)OC[C@]23[C@H]2CC[C@@]4(C)[C@H](c5ccoc5)OC(=O)[C@H]5O[C@]54[C@]2(C)C(=O)C[C@@H]13 came out in this test?
Result: n

Ask: Hi, do you know how CCC(N)C(O)c1ccc(O)c(O)c1 (centres undefined) came out in this test?
Result: n

Ask: Hi, do you know how CC(=O)O[C@@H]1CC2C(C)(C)C(=O)C=C[C@]2(C)C2CC[C@@]3(C)[C@H](c4ccoc4)OC(=O)[C@H]4O[C@]43[C@@]21C (some centres undefined) came out in this test?
Result: n

Ask: Hi, do you know how CC1CC[C@@]2(OC1)O[C@H]1CC3C4CC[C@@H]5C[C@@H](O)CC[C@]5(C)C4CC[C@]3(C)[C@H]1[C@@H]2C (some centres undefined) came out in this test?
Result: n

Ask: Hi, do you know how CC(C)c1c(O)ccc2c1CCC1[C@@](C)(C=O)CCC[C@]21C (some centres undefined) came out in this test?
Result: n

Ask: Hi, do you know how CC1(C)C2CC(=O)[C@]3(C)C(CC[C@@]4(C)[C@H](c5ccoc5)OC(=O)[C@H]5O[C@]543)[C@@]2(C)C(=O)C[C@H]1O (some centres undefined) came out in this test?
Result: n

Ask: Hi, do you know how CN(C)c1ccc2nc3ccc(=[N+](C)C)cc-3sc2c1 came out in this test?
Result: n

Ask: Hi, do you know how CNC(=O)Oc1cccc2c1OC(C)(C)O2 came out in this test?
Result: n

Ask: Hi, do you know how CC1(C)C=CC(=O)[C@@]2(C)C1CC(=O)[C@]1(C)C2CC[C@@]2(C)[C@H](c3ccoc3)OC(=O)C3OC321 (some centres undefined) came out in this test?
Result: n

Ask: Hi, do you know how COc1cc(O)c2c(=O)c(O)c(-c3ccc(O)c(O)c3)oc2c1 came out in this test?
Result: n

Ask: Hi, do you know how C[C@@H]1CC[C@@]2(OC1)OC1CC3C4CC=C5C[C@@H](O)CC[C@]5(C)C4CC[C@]3(C)C1[C@@H]2C (some centres undefined) came out in this test?
Result: n

Ask: Hi, do you know how O=C(OC1Cc2c(O)cc(O)cc2OC1c1cc(=O)c(O)c2c(O)c(O)cc(C3Oc4cc(O)cc(O)c4CC3O)c2c1)c1cc(O)c(O)c(O)c1 (centres undefined) came out in this test?
Result: n

Ask: Hi, do you know how NC(N)=NC(=O)c1nc(Cl)c(N)nc1N came out in this test?
Result: n

Ask: Hi, do you know how COc1ccccc1/C=C\C(=O)O came out in this test?
Result: n

Ask: Hi, do you know how COc1cc(OC)c2c(=O)c(OC)c(-c3ccc(OC)c(OC)c3)oc2c1 came out in this test?
Result: n

Ask: Hi, do you know how COC(=O)[C@H](Cc1ccccc1)NC(=O)[C@@H](N)CC(=O)O (H-Asp-Phe-OMe) came out in this test?
Result: n

Ask: Hi, do you know how N#Cc1nn(-c2c(Cl)cc(C(F)(F)F)cc2Cl)c(N)c1S(=O)C(F)(F)F (centres undefined) came out in this test?
Result: n

Ask: Hi, do you know how CCCCCc1c2c(cc(O)c1C(=O)O)OC(=O)c1c(cc(OC)cc1C(=O)CCCC)O2 came out in this test?
Result: n

Ask: Hi, do you know how COC1=CC(=O)C(O)=C/C1=C\C=C\c1ccccc1 came out in this test?
Result: y

Ask: Hi, do you know how C[C@@H]1O[C@@H](OC[C@H]2OC(Oc3c(-c4ccc(OCCO)c(OCCO)c4)oc4cc(OCCO)cc(O)c4c3=O)[C@H](O)[C@@H](O)[C@@H]2O)[C@H](O)[C@H](O)[C@H]1O (some centres undefined) came out in this test?
Result: n

Ask: Hi, do you know how COc1ccc(-c2cc(=O)c3c(O)cc(O[C@H]4O[C@H](CO[C@@H]5O[C@@H](C)[C@H](O)[C@@H](O)[C@H]5O)[C@@H](O)[C@H](O)[C@H]4O)cc3o2)cc1 came out in this test?
Result: n

###

# protocol.summary: chemical genetic growth profiling, strain panel (AID 1159580);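 note: tested at 20 µM; growth read once vehicle control cultures reached saturation at 30 °C; 1 = growth at the plate median or of vehicle wells; lower values mean less growth of the strain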
# conditions: S. cerevisiae deletion strains, growth OD, locus YOR061W, strain CKA2, active compounds read low
The campaign covered roughly 5,500 compounds. About 2,000 (36%) were called active. Another 18% or so got no clear call; they are omitted. This is one part of the list.
value.type: normalized growth
Lab note: jot down the number only; don't add units.

Ask: For the molecule CC1(C)C(=O)C=C[C@@]2(C)C1CC(=O)[C@]1(C)C2CC[C@@]2(C)[C@H](c3ccoc3)OC(=O)[C@H]3O[C@]321 (stereo partly drawn) , give its reported normalized growth.
Result: 0.991

Ask: For the molecule CC1CCC2(OC1)OC1CC3C4CC[C@H]5C[C@@H](O)CC[C@]5(C)C4CC(=O)[C@]3(C)C1C2C (stereo partly drawn) , give its reported normalized growth.
Result: 1.01

Ask: For the molecule CC(C)(O)[C@@H]1Cc2cc3ccc(=O)oc3cc2O1 , give its reported normalized growth.
Result: 1.01

Ask: For the molecule COC(=O)[C@@]1(C)CCC[C@]2(C)c3ccc(O)c(C(C)C)c3CCC12 (stereo partly drawn) , give its reported normalized growth.
Result: 0.859

Ask: For the molecule CC1CC[C@@]2(OC1)O[C@H]1CC3C4CC[C@@H]5CC(=O)CC[C@]5(C)C4CC[C@]3(C)[C@H]1[C@@H]2C (stereo partly drawn) , give its reported normalized growth.
Result: 1.01

Ask: For the molecule O=C1Nc2ccccc2/C1=C/c1ccc(C(F)(F)F)cc1Cl , give its reported normalized growth.
Result: 0.929

Ask: For the molecule CCCCOc1cc(C(=O)NCCN(CC)CC)c2ccccc2n1 , give its reported normalized growth.
Result: 1.01

Ask: For the molecule CCC(c1ccc(O)cc1)C(CC)c1ccc(O)cc1 (stereo not drawn) , give its reported normalized growth.
Result: 0.984

Ask: For the molecule CC(C)C1COc2cc3oc(=O)ccc3cc2O1 (stereo not drawn) , give its reported normalized growth.
Result: 0.101

Ask: For the molecule CC(C)c1c(O)ccc2c1CCC1[C@@](C)(C=O)CCC[C@]21C (stereo partly drawn) , give its reported normalized growth.
Result: 0.689

Ask: For the molecule NC(=O)c1ncn([C@@H]2O[C@H](CO)[C@@H](O)[C@H]2O)n1 , give its reported normalized growth.
Result: 0.998

Ask: For the molecule Cc1ccccc1OCC(O)CO (stereo not drawn) , give its reported normalized growth.
Result: 1.02

Ask: For the molecule CN1C[C@H](C(=O)N[C@]2(C)O[C@@]3(O)[C@@H]4CCCN4C(=O)[C@H](Cc4ccccc4)N3C2=O)C[C@@H]2c3cccc4[nH]cc(c34)C[C@H]21 , give its reported normalized growth.
Result: 0.986

Ask: For the molecule CCCCCCCCCCCC1=C(O)C(=O)C=C(O)C1=O , give its reported normalized growth.
Result: 0.986

Ask: For the molecule CCN(Cc1ccncc1)C(=O)C(CO)c1ccccc1 (stereo not drawn) , give its reported normalized growth.
Result: 0.988

Ask: For the molecule CC1(C)C2CC(=O)[C@]3(C)C(CC[C@@]4(C)[C@H](c5ccoc5)OC(=O)[C@H]5O[C@]543)[C@@]2(C)C(=O)C[C@H]1O (stereo partly drawn) , give its reported normalized growth.
Result: 0.999

Ask: For the molecule COC(=O)C[C@H]1C(C)(C)C2(Cl)O[C@@]34CC2C(=O)[C@]1(C)C3CC[C@]1(C)C4=CC(=O)O[C@H]1c1ccoc1 (stereo partly drawn) , give its reported normalized growth.
Result: 1.01

Ask: For the molecule CC1(C)C2CC(=O)[C@]3(C)C(CC[C@@]4(C)[C@H](c5ccoc5)OC(=O)C5OC543)[C@@]2(C)[C@@H](O)C[C@H]1O (stereo partly drawn) , give its reported normalized growth.
Result: 1.01

Ask: For the molecule CCCCC1C(=O)N(c2ccccc2)N(c2ccc(O)cc2)C1=O (stereo not drawn) , give its reported normalized growth.
Result: 0.959

Ask: For the molecule CC(=O)O[C@@H]1CC2C(C)(C)C(=O)C=C[C@]2(C)C2CC[C@@]3(C)[C@H](c4ccoc4)OC(=O)[C@H]4O[C@]43[C@@]21C (stereo partly drawn) , give its reported normalized growth.
Result: 0.997

Ask: For the molecule c1ccc(-c2nnc(-c3ccccn3)nc2-c2ccccc2)cc1 , give its reported normalized growth.
Result: 0.662

Ask: For the molecule CC(=O)O[C@@H]1CC(=O)[C@@]2(C)C(CC(=O)[C@]3(C)C2CC[C@@]2(C)[C@H](c4ccoc4)OC(=O)C4OC423)C1(C)C (stereo partly drawn) , give its reported normalized growth.
Result: 1

Ask: For the molecule CC/C(=C(/CC)c1ccc(O)cc1)c1ccc(O)cc1 , give its reported normalized growth.
Result: 0.976

Ask: For the molecule Oc1cc2c(cc1O)C1c3ccc(O)c(O)c3OCC1(O)C2 (stereo not drawn) , give its reported normalized growth.
Result: 0.945

Ask: For the molecule CC1(C)C(=O)C=C[C@@]2(C)C1C[C@@H](O)[C@]1(C)C2CC[C@@]2(C)[C@H](c3ccoc3)OC(=O)[C@H]3O[C@]321 (stereo partly drawn) , give its reported normalized growth.
Result: 0.952

Ask: For the molecule C[C@@H]1CC[C@@]2(NC1)O[C@H]1C[C@H]3C4CC=C5C[C@@H](O)CC[C@]5(C)C4CC[C@]3(C)C1[C@@H]2C (stereo partly drawn) , give its reported normalized growth.
Result: 0.0862

Ask: For the molecule Oc1c(Cl)cc(Cl)cc1/C=N\NC(=S)Nc1cc(C(F)(F)F)cc(C(F)(F)F)c1 , give its reported normalized growth.
Result: 0.114

Ask: For the molecule CC1CC[C@@]2(OC1)O[C@H]1CC3C4CC[C@@H]5C[C@@H](O)CC[C@]5(C)C4CC[C@]3(C)[C@H]1[C@@H]2C (stereo partly drawn) , give its reported normalized growth.
Result: 1.02

Ask: For the molecule COC(=O)[C@]1(C)CCC[C@]2(C)c3ccc(C(C)C)cc3C(=O)CC12 (stereo partly drawn) , give its reported normalized growth.
Result: 0.977

Ask: For the molecule CCc1cc(C(N)=S)ccn1 , give its reported normalized growth.
Result: 0.96

Ask: For the molecule O=C1Nc2ccccc2/C1=C\c1ccc(Cl)cc1 , give its reported normalized growth.
Result: 0.853

Ask: For the molecule NC(=O)CN1CCCC1=O , give its reported normalized growth.
Result: 1.01

Ask: For the molecule CC1(C)C(=O)C=C[C@@]2(C)C1C=C[C@]1(C)C2CC[C@@]2(C)[C@H](c3ccoc3)OC(=O)C3OC321 (stereo partly drawn) , give its reported normalized growth.
Result: 0.983

Ask: For the molecule COc1ccccc1NC(=S)N/N=C\c1ccccc1O , give its reported normalized growth.
Result: 0.931

Ask: For the molecule C[C@@H]1CC[C@@]2(OC1)OC1CC3C4CC=C5C[C@@H](O)CC[C@]5(C)C4CC[C@]3(C)C1[C@@H]2C (stereo partly drawn) , give its reported normalized growth.
Result: 1.01

Ask: For the molecule CCc1cccc(CC)c1N(COC)C(=O)CCl , give its reported normalized growth.
Result: 0.999

Ask: For the molecule CC(=O)Oc1ccc2c(c1OC(C)=O)OCC1(O)Cc3c(cc(OC(C)=O)c(OC(C)=O)c3OC(C)=O)C21 (stereo not drawn) , give its reported normalized growth.
Result: 0.981

Ask: For the molecule NC(CSCSCC(N)C(=O)O)C(=O)O (stereo not drawn) , give its reported normalized growth.
Result: 1.01
